The reader will find reported EC50 values listed item by item below.
- System: CB2 (Homo sapiens (Human))
- Sequence (P34972 whole entry): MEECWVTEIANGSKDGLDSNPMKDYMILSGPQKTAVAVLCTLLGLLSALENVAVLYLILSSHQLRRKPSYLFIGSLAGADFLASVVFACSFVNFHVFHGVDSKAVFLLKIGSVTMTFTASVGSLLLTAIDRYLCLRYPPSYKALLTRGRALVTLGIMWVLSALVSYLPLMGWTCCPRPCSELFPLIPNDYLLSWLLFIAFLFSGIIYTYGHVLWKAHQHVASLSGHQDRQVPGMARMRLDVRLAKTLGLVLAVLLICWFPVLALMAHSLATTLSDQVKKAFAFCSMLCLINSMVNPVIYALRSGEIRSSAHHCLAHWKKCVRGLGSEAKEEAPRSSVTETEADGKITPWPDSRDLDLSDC
- Method Summary: CB1/CB2 Functional Assay (GTPγ[35S]), CB2 membranes
- Type: biochemical
- Experimental Setup: read-out: EC50 (nM) for GTP Binding
Return type: number; implicit unit nM.

Observe how each entry below is paired with its result.
CC1(Cc2ccccc2)COc2cc(C(=O)NC3CCCCC3)ccc21 (stereo not drawn) [Example 2] :: 479
CC1(Cc2ccccc2)COc2ccc(C(=O)NC3CCCCC3)cc21 (stereo not drawn) [Example 5] :: 409

Next:
Query :: Data request, read-out EC50, for CC1(Cc2ccccc2)COc2cc(C(=O)N3CCCCC3)ccc21 (stereo not drawn) [Example 3]
Result :: 160

Values from patent US9339486B2
